All figures here come from patent US7666873B2.

Target of assay: human androgen receptor (Homo sapiens)
Construct: expressed in transfected cells
Procedure details: Transcription activation inhibitory action toward human androgen receptor (antagonistic action), MMTV luciferase reporter in CHO cells
Format: cell-based
The molecules listed here are annotated with their IC50.
Report the figure in nM without appending any unit label.

Worked examples, 2 molecules total:
C[C@@H]1CN(c2ccc(C#N)c(Cl)c2)[C@@H](C)CN1C(=O)Nc1ccc(C#N)nc1 : 40
C[C@@H]1CN(c2ccc(C#N)c(C(F)(F)F)c2)[C@@H](C)CN1C(=O)Nc1cnc(C2CC2)nc1 : 68

Consider the additional molecule presented here.
(Q) Answer with reported IC50 of C[C@@H]1CN(c2ccc(C#N)c(Br)c2)[C@@H](C)CN1C(=O)Nc1ccc(C(F)(F)F)nc1
(A) 53

----------
Target of assay: human androgen receptor (Homo sapiens, UniProt P10275)
Construct: expressed in transfected cells
Sequence (P10275 whole entry): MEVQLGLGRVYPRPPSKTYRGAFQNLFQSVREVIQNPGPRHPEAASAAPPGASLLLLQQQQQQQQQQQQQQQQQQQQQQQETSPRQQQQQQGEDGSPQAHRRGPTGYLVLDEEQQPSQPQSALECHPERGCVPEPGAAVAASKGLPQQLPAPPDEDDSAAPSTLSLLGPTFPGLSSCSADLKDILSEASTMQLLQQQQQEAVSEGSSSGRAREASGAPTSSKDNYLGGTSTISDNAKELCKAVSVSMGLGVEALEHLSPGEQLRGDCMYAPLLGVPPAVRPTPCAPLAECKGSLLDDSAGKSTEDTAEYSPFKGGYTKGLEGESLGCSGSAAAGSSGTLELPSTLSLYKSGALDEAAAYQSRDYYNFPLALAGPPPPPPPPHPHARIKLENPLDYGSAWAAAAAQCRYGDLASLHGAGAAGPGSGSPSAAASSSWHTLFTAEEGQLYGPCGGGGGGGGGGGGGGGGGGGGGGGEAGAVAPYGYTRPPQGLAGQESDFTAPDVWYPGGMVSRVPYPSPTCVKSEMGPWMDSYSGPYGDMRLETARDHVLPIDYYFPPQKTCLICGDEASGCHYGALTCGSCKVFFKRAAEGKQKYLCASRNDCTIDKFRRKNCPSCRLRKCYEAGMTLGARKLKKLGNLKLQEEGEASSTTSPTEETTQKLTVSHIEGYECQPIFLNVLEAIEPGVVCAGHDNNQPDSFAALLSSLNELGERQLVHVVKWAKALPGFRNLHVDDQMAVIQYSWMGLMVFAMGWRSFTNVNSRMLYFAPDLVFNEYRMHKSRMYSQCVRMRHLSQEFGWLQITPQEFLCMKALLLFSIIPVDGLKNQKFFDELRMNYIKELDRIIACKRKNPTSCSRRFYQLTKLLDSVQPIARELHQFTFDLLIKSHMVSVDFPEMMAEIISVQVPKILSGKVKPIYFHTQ
Procedure details: Transcription activation inhibitory action toward human androgen receptor (antagonistic action), MMTV luciferase reporter in CHO cells
Format: cell-based
Measurement parameters: against 0.3 nM DHT; CHO/MMTV and CHO/SV40 stable transformants; read-out: Transcription activation inhibitory action (IC50 nM)
Parameter measured: IC50

(Q) Answer with reported IC50 of COc1cc(N2C[C@@H](C)N(C(=O)Nc3ccc(C(F)(F)F)nc3)C[C@@H]2C)ccc1C#N
(A) 130 nM
